# condition: 423.15 K; 1000 kPa; Liquid; Vibrating tube method
reported_metric: mass density (kg/m3)

[
  {
    "compound": "CCCCOCCOCCOCCOCCCC [5,8,11,14-tetraoxaoctadecane]",
    "mass density [kg/m3]": 809.1
  },
  {
    "compound": "COCC(C)OCC(C)OC (stereo not given) [2-methoxy-1-(2-methoxy-1-methylethoxy)propane]",
    "mass density [kg/m3]": 776.3
  },
  {
    "compound": "CCCCOCCOCCOCCCC [5,8,11-trioxapentadecane]",
    "mass density [kg/m3]": 773.3
  },
  {
    "compound": "CCOCCOCCOCC [diethylene glycol diethyl ether]",
    "mass density [kg/m3]": 779.2
  },
  {
    "compound": "CCOCCOCC [1,2-diethoxyethane]",
    "mass density [kg/m3]": 709.4
  }
]

###

# condition: 393.15 K; 1000 kPa; Liquid; Vibrating tube method
reported_metric: mass density (kg/m3)

[
  {
    "compound": "CCOCCOCCOCC",
    "mass density (kg/m3)": 810.3
  },
  {
    "compound": "CCOCCOCC",
    "mass density (kg/m3)": 745.8
  },
  {
    "compound": "CCCCOCCOCCOCCCC",
    "mass density (kg/m3)": 799.4
  },
  {
    "compound": "COCC(C)OCC(C)OC (stereo not given)",
    "mass density (kg/m3)": 807.2
  },
  {
    "compound": "CCCCOCCOCCOCCOCCCC",
    "mass density (kg/m3)": 834.5
  }
]

###

# condition: 333.15 K; 101.33 kPa; Liquid; Capillary tube (Ostwald / Ubbelohde) method
reported_metric: kinematic viscosity (m2/s)

[
  {
    "compound": "CCCCOCCOCCOCCOCCCC [5,8,11,14-tetraoxaoctadecane]",
    "value_units": "m2/s",
    "kinematic viscosity": "1.92e-06"
  },
  {
    "compound": "COCC(C)OCC(C)OC (centres undefined) [2-methoxy-1-(2-methoxy-1-methylethoxy)propane]",
    "value_units": "m2/s",
    "kinematic viscosity": "7.19e-07"
  }
]

A. CCCCOCCOCCOCCCC [5,8,11-trioxapentadecane]
B. CCOCCOCCOCC [diethylene glycol diethyl ether]
Lowest kinematic viscosity? choose A or B Answer by stating the label of the chosen item.
B
(B: 8.48e-07 m2/s, A: 1.38e-06 m2/s)

###

# assay_details: molar heat capacity at constant pressure
# condition: 411.58 K; 1000 kPa; Liquid
reported_metric: molar heat capacity at constant pressure (J/K/mol)

Reference set, count: 2
[
  {
    "compound": "COCC(C)OCC(C)OC (centres undefined)",
    "reported_metric": "molar heat capacity at constant pressure",
    "measurement": 373.93
  },
  {
    "compound": "CCCCOCCOCCOCCCC",
    "reported_metric": "molar heat capacity at constant pressure",
    "measurement": 512.21
  }
]

I. CCCCOCCOCCOCCOCCCC
II. CCOCCOCCOCC
Return label of the item with the larger molar heat capacity at constant pressure. Candidates: I , II . Answer by stating the label of the chosen item.
I
(I: 603.75 J/K/mol, II: 380.75 J/K/mol)

###

# assay_details: molar heat capacity at constant pressure
# condition: 352.18 K; 1000 kPa; Liquid
reported_metric: molar heat capacity at constant pressure (J/K/mol)

P. CCOCCOCCOCC [diethylene glycol diethyl ether]
Q. CCCCOCCOCCOCCOCCCC [5,8,11,14-tetraoxaoctadecane]
Return label of the item with the larger molar heat capacity at constant pressure. Candidates: P , Q . Answer by stating the label of the chosen item.
Q

###

# condition: 383.15 K; 101.33 kPa; Liquid; Capillary tube (Ostwald / Ubbelohde) method
reported_metric: kinematic viscosity (m2/s)

A. CCCCOCCOCCOCCOCCCC [5,8,11,14-tetraoxaoctadecane]
B. COCC(C)OCC(C)OC (centres undefined) [2-methoxy-1-(2-methoxy-1-methylethoxy)propane]
Return label of the item with the larger kinematic viscosity. Candidates: A , B . Answer by stating the label of the chosen item.
A
(A: 1.04e-06 m2/s, B: 4.69e-07 m2/s)

a. CCCCOCCOCCOCCCC [5,8,11-trioxapentadecane]
b. CCOCCOCCOCC [diethylene glycol diethyl ether]
Lowest kinematic viscosity? choose a or b Answer by stating the label of the chosen item.
b
(b: 5.32e-07 m2/s, a: 7.95e-07 m2/s)

###

# condition: 343.15 K; 101.33 kPa; Liquid; Capillary tube (Ostwald / Ubbelohde) method
reported_metric: kinematic viscosity (m2/s)

Reference set, count: 2
[
  {
    "compound": "CCCCOCCOCCOCCOCCCC [5,8,11,14-tetraoxaoctadecane]",
    "measurement": "1.67e-06"
  },
  {
    "compound": "COCC(C)OCC(C)OC (centres undefined) [2-methoxy-1-(2-methoxy-1-methylethoxy)propane]",
    "measurement": "6.5e-07"
  }
]

I. CCOCCOCCOCC [diethylene glycol diethyl ether]
II. CCCCOCCOCCOCCCC [5,8,11-trioxapentadecane]
Lowest kinematic viscosity? choose I or II Answer by stating the label of the chosen item.
I
(I: 7.6e-07 m2/s, II: 1.22e-06 m2/s)

###

# condition: 323.15 K; 101.33 kPa; Liquid; Capillary tube (Ostwald / Ubbelohde) method
reported_metric: kinematic viscosity (m2/s)

Reference set, count: 2
[
  {
    "compound": "CCOCCOCCOCC",
    "measurement": "9.56e-07"
  },
  {
    "compound": "CCCCOCCOCCOCCCC",
    "measurement": "1.59e-06"
  }
]

A. CCCCOCCOCCOCCOCCCC
B. COCC(C)OCC(C)OC (centres undefined)
Return label of the item with the larger kinematic viscosity. Candidates: A , B . Answer by stating the label of the chosen item.
A

###

# condition: 373.15 K; 1000 kPa; Liquid; Vibrating tube method
reported_metric: mass density (kg/m3)

[
  {
    "molecule": "CCOCCOCC",
    "value_units": "kg/m3",
    "mass density": 768.6
  },
  {
    "molecule": "CCOCCOCCOCC",
    "value_units": "kg/m3",
    "mass density": 830.3
  },
  {
    "molecule": "CCCCOCCOCCOCCCC",
    "value_units": "kg/m3",
    "mass density": 816.5
  },
  {
    "molecule": "COCC(C)OCC(C)OC (stereo not given)",
    "value_units": "kg/m3",
    "mass density": 827.2
  },
  {
    "molecule": "CCCCOCCOCCOCCOCCCC",
    "value_units": "kg/m3",
    "mass density": 851.4
  }
]

###

# condition: 293.15 K; 1000 kPa; Liquid; Vibrating tube method
reported_metric: mass density (kg/m3)

[
  {
    "compound": "CCCCOCCOCCOCCOCCCC [5,8,11,14-tetraoxaoctadecane]",
    "mass density, kg/m3": 917.7
  },
  {
    "compound": "COCC(C)OCC(C)OC (stereo not given) [2-methoxy-1-(2-methoxy-1-methylethoxy)propane]",
    "mass density, kg/m3": 903.4
  },
  {
    "compound": "CCCCOCCOCCOCCCC [5,8,11-trioxapentadecane]",
    "mass density, kg/m3": 883.2
  },
  {
    "compound": "CCOCCOCCOCC [diethylene glycol diethyl ether]",
    "mass density, kg/m3": 907.9
  },
  {
    "compound": "CCOCCOCC [1,2-diethoxyethane]",
    "mass density, kg/m3": 852.8
  }
]

###

# condition: 283.15 K; 1000 kPa; Liquid; Vibrating tube method
reported_metric: mass density (kg/m3)

[
  {
    "molecule": "COCC(C)OCC(C)OC (stereo not given)",
    "value_units": "kg/m3",
    "mass density": 913
  },
  {
    "molecule": "CCCCOCCOCCOCCCC",
    "value_units": "kg/m3",
    "mass density": 891.6
  },
  {
    "molecule": "CCCCOCCOCCOCCOCCCC",
    "value_units": "kg/m3",
    "mass density": 926.1
  },
  {
    "molecule": "CCOCCOCCOCC",
    "value_units": "kg/m3",
    "mass density": 917.4
  },
  {
    "molecule": "CCOCCOCC",
    "value_units": "kg/m3",
    "mass density": 862.9
  }
]

###

# condition: 353.15 K; 101.33 kPa; Liquid; Capillary tube (Ostwald / Ubbelohde) method
reported_metric: kinematic viscosity (m2/s)

[
  {
    "molecule": "COCC(C)OCC(C)OC (centres undefined)",
    "reported_metric": "kinematic viscosity",
    "value_units": "m2/s",
    "measurement": "5.93e-07"
  },
  {
    "molecule": "CCCCOCCOCCOCCCC",
    "reported_metric": "kinematic viscosity",
    "value_units": "m2/s",
    "measurement": "1.08e-06"
  }
]

I. CCCCOCCOCCOCCOCCCC
II. CCOCCOCCOCC
Lowest kinematic viscosity? choose I or II Answer by stating the label of the chosen item.
II
